Reported log10(IC50) is given for each of the following compounds.
# tested-system: Oxysterols receptor LXR-alpha (Homo sapiens)
# Sequence (Q13133 whole entry): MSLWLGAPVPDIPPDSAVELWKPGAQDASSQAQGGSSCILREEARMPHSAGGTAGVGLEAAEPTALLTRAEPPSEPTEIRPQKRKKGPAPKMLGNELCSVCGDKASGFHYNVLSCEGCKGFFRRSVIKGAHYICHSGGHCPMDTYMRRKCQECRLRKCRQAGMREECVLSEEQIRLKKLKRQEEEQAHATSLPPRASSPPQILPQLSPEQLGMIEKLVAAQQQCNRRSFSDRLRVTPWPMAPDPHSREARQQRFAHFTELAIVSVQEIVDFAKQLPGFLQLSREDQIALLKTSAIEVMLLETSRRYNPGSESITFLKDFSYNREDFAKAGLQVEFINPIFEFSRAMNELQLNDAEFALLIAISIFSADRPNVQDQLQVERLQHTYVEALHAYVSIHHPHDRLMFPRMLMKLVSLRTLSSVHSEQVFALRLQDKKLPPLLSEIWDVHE
# assay-protocol: Antagonist activity at human LXRalpha expressed in HEK293 cells assessed as inhibition of beta-galactosidase activity by luciferase reporter gene assay
# Type: functional, cell-based
result-type: log10(IC50) (log10 of the value in µM)

INSERT INTO results (smiles_structure, readout_number) VALUES
  ('COc1ccc(CCc2cccc(N3C(=O)c4c(Cl)c(Cl)c(Cl)c(Cl)c4C3=O)c2)cc1', 0.74),
  ('O=C1c2c(Cl)c(Cl)c(Cl)c(Cl)c2C(=O)N1c1cccc(/C=C/c2ccc(O)c(O)c2)c1', 0.82),
  ('O=C1c2c(Cl)c(Cl)c(Cl)c(Cl)c2C(=O)N1c1ccc(CCc2ccc(O)c(O)c2)cc1', 0.71),
  ('O=C1c2c(Cl)c(Cl)c(Cl)c(Cl)c2C(=O)N1c1cccc(CCc2ccc(O)cc2)c1', 0.57),
  ('COc1cccc(CCc2ccc(N3C(=O)c4ccccc4C3=O)cc2)c1', 0.38),
  ('O=C1c2ccccc2C(=O)N1c1ccc(CCc2ccc(O)cc2)cc1', 0.46),
  ('COc1ccc(/C=C/c2ccc(N3C(=O)c4ccccc4C3=O)cc2)cc1OC', 0.58),
  ('O=C1c2ccccc2C(=O)N1c1ccc(CCc2cccc(O)c2)cc1', 0.88),
  ('COc1ccc(CCc2ccc(N3C(=O)c4ccccc4C3=O)cc2)cc1OC', 0.68),
  ('O=C1c2c(Cl)c(Cl)c(Cl)c(Cl)c2C(=O)N1c1cccc(CCc2cccc(O)c2)c1', 0.41),
  ('O=C1c2ccccc2C(=O)N1c1ccc(/C=C/c2ccc(O)c(O)c2)cc1', 0.20),
  ('O=C1c2c(Cl)c(Cl)c(Cl)c(Cl)c2C(=O)N1c1ccccc1CCc1ccc(O)c(O)c1', 1.18),
  ('O=C1c2c(Cl)c(Cl)c(Cl)c(Cl)c2C(=O)N1c1ccc(CCc2cccc(O)c2)cc1', 0.59),
  ('COc1ccc(CCc2ccc(N3C(=O)c4ccccc4C3=O)cc2)cc1', -0.70);
